Source listed as ChEMBL document CHEMBL1150285.

# ASSAY_OVERVIEW: Selectivity index, ratio of CC50 for human MT4 cells to EC50 for HIV1 3B
# CONDITIONS: MT4 cells

| SMILES | selectivity ratio |
| --- | --- |
| COc1ccc(CS(=O)(=O)C[C@@H](NS(C)(=O)=O)C(=O)N[C@@H](Cc2ccccc2)[C@H](O)C(=O)N2CSC(C)(C)[C@H]2C(=O)NCc2ccccc2C)cc1 | > 130 |
| Cc1ccccc1CNC(=O)[C@H]1N(C(=O)[C@@H](O)[C@H](Cc2ccccc2)NC(=O)[C@@H](CS(=O)(=O)c2ccc(F)cc2)NS(C)(=O)=O)CSC1(C)C | > 130 |
| CC(=O)N[C@H](CCc1ccccc1)C(=O)N[C@@H](Cc1ccccc1)[C@H](O)C(=O)N1CSC(C)(C)[C@H]1C(=O)NCc1ccccc1C | > 610 |
| CC(=O)N[C@H](CS(=O)(=O)Cc1ccccc1)C(=O)N[C@@H](Cc1ccccc1)[C@H](O)C(=O)N1CSC(C)(C)[C@H]1C(=O)NCc1ccccc1C | > 240 |
| Cc1ccccc1CNC(=O)[C@H]1N(C(=O)[C@@H](O)[C@H](Cc2ccccc2)NC(=O)[C@@H](CS(=O)(=O)Cc2ccccc2)NS(C)(=O)=O)CSC1(C)C | > 120 |
| COc1ccc(CS(=O)(=O)C[C@@H](NC(C)=O)C(=O)N[C@@H](Cc2ccccc2)[C@H](O)C(=O)N2CSC(C)(C)[C@H]2C(=O)NCc2ccccc2C)cc1 | > 260 |
| CC(=O)N[C@H](CS(=O)(=O)Cc1ccc(C)cc1)C(=O)N[C@@H](Cc1ccccc1)[C@H](O)C(=O)N1CSC(C)(C)[C@H]1C(=O)NCc1ccccc1C | > 340 |
| CC(=O)N[C@H](CS(=O)(=O)c1ccc2ccccc2n1)C(=O)N[C@@H](Cc1ccccc1)[C@H](O)C(=O)N1CSC(C)(C)[C@H]1C(=O)NCc1ccccc1C | > 290 |
| Cc1ccc(CS(=O)(=O)C[C@@H](NS(C)(=O)=O)C(=O)N[C@@H](Cc2ccccc2)[C@H](O)C(=O)N2CSC(C)(C)[C@H]2C(=O)NCc2ccccc2C)cc1 | > 210 |
| CC(=O)N[C@H](CS(=O)(=O)c1ccc(F)cc1)C(=O)N[C@@H](Cc1ccccc1)[C@H](O)C(=O)N1CSC(C)(C)[C@H]1C(=O)NCc1ccccc1C | > 270 |
| CC(=O)N[C@H](COCc1ccccc1)C(=O)N[C@@H](Cc1ccccc1)[C@H](O)C(=O)N1CSC(C)(C)[C@H]1C(=O)NCc1ccccc1C | > 1400 |
